I'd appreciate it if you could supply EC50 values for the items below.
- Test system: Streptococcus
- experiment summary: Group A Streptococcus viability loss, dose response, counter-screen for streptokinase expression inhibitor project, luminescence, BacTiterGlo (AID 1915);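 further: potency for reduction of bacterial viability or growth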
- Assay type: functional, organism-based
Active and inactive are the calls of the source. No stated cut-off is given here; in the data, actives have a measured EC50 and inactives only a lower limit.

Solved entries (count: 6):
# smiles text, tested system, EC50
records = [
    ("CC(C)n1cnc2c(NCc3ccccc3)nc(NCc3ccccc3)nc21", "Streptococcus", "> 150 µM (not active)"),
    ("CC(C)C(=O)Nc1ccc(C(=O)NNC(=S)NC(=O)c2cccs2)cc1", "Streptococcus", "34.8 µM (active)"),
    ("Nc1ccc(C#Cc2ccc3oc4ccccc4c(=O)c3c2)cc1", "Streptococcus", "2.37 µM (active)"),
    ("COc1cc(C(=O)NNC(=S)NC(=O)c2ccccc2C)cc(OC)c1OC", "Streptococcus", "49.5 µM (active)"),
    ("Cc1cc(N/N=C/c2c(O)ccc3ccccc23)nc(-c2ccccc2O)n1", "Streptococcus", "0.425 µM (active)"),
    ("C=C(C)COc1ccc(-c2n[nH]cc2Oc2cccc(OC)c2)c(O)c1", "Streptococcus", "10 µM (active)"),
]

Query: Requested read-out EC50, target or system Streptococcus, entry `CC(=O)Nc1sc(NC(=O)c2ccc([N+](=O)[O-])cc2)nc1-c1cccs1`
Result: > 150 µM (not active)

Every entry's value here was drawn from ChEMBL document CHEMBL1201862.
